Each recorded value in this set is attributed to the supplement of paper PMC4022240.

target_of_assay: HaloTag-ING2 PHD (mouse Ing2 200-280)
protocol: peptide microarray binding signal (635 nm), min-max normalized on array (fraction of array maximum); higher = stronger binding
settings: peptide region: Unmod H2B variant; binder concentration: 100 nM
measure_name: peptide microarray binding signal

Endpoint output: peptide microarray binding signal of NSFVNDIFERIAG [Unmod H2B variant N S F V N D I F E R I A G] . Value? 0.00383

Field entry: YSKRSTISSREIQ [Unmod H2B variant Y S K R S T I S S R E I Q] 0.0429

Same for KRSRKESYSIYVY [Unmod H2B variant K R S R K E S Y S I Y V Y] 0.000496

And EGTKAVTKYTSSK [Unmod H2B variant E G T K A V T K Y T S S K] ? 0.0128
